- Method notes: Biodistribution and pharmacokinetics in plasma and liver after intravenous administration in mice
- Format: in vivo
- Recorded conditions: male, C57 BL/6, mouse, liver and plasma, 5 mg/kg intravenous, read-out: AUCliver/AUCplasma ratio
Assay readout: Kp
Answer as a number with no unit attached.

[ask] Query (compound): O=C(N[C@@H](Cc1ccc(F)cc1)C(=O)N1CCC(O)CC1)c1cc2cc(Cl)ncc2[nH]1 ; field requested: Kp
[reply] 10.1

----------
- Method notes: Biodistribution and pharmacokinetics in plasma and liver after intravenous administration in mice
- Format: in vivo
- Recorded conditions: male, C57 BL/6, mouse, plasma, 5 mg/kg intravenous, read-out: MRT0-t, plasma
For each of the compounds below, state its MRT last.

[ask] Query (compound): C[C@H](CCC(=O)N[C@@H](CC(=O)O)C(=O)OC1CCN(C(=O)[C@H](Cc2ccc(F)cc2)NC(=O)c2cc3cc(Cl)ncc3[nH]2)CC1)[C@H]1CC[C@H]2[C@@H]3[C@H](O)C[C@@H]4C[C@H](O)CC[C@]4(C)[C@H]3C[C@H](O)[C@]12C [Conjugate 6] ; field requested: MRT last
[reply] 7.52 h

[ask] Now consider O=C(N[C@@H](Cc1ccc(F)cc1)C(=O)N1CCC(O)CC1)c1cc2cc(Cl)ncc2[nH]1 and answer again.
[reply] 3.18 h
